Procedure Details: Acute toxicity in male CF 1 mice
Reported Conditions: mouse, in vivo, sc
Procedure: Similarly, in another series of tests the acute toxicity of antibiotics 67-121A, 67-121B and 67121C were determined in male CF 1 mice.
Property Name: LD50

In: Retrieve LD50 measured for CC1C=CC=CC=CC=CC=CC=CC=CC(OC2OC(C)C(O)C(N)C2O)CC2OC(O)(CC(O)CC(O)CC(O)CC(O)CC(O)CC(O)CC(=O)OC1C(C)CCC(O)CC(=O)c1ccc(N)cc1)CC(O)C2C(=O)O (stereo not shown) [Antibiotic 67-121B] and print it.
Out: > 50 mg/kg

###

Procedure Details: pKa
Reported Conditions: 66% aqueous dimethylformamide, pka (COO^-), 66% aqueous dimethyl formamide
Property Name: pKa
Output: the number by itself.

In: Indicate the recorded pKa value for this compound: CNc1ccc(C(=O)CC(O)CCC(C)C2OC(=O)CC(O)CC(O)CC(O)CC(O)CC(O)CC(O)CC3(O)CC(O)C(C(=O)O)C(CC(OC4OC(C)C(O)C(N)C4O)C=CC=CC=CC=CC=CC=CC=CC2C)O3)cc1 (stereo not shown) [Antibiotic 67-121A]
Out: 6

###

# reported pKa; entries follow
Procedure Details: physchem
Reported Conditions: 66% aqueous dimethylformamide, pka (NH3^+)

- CNc1ccc(C(=O)CC(O)CCC(C)C2OC(=O)CC(O)CC(O)CC(O)CC(O)CC(O)CC(O)CC3(O)CC(O)C(C(=O)O)C(CC(OC4OC(C)C(OC5OC(CO)C(O)C(O)C5O)C(N)C4O)C=CC=CC=CC=CC=CC=CC=CC2C)O3)cc1 (centres unmarked) [Antibiotic 67-121C]: 9

Now consider a different compound.
In: Please report pKa for the following compound: CC1C=CC=CC=CC=CC=CC=CC=CC(OC2OC(C)C(O)C(N)C2O)CC2OC(O)(CC(O)CC(O)CC(O)CC(O)CC(O)CC(O)CC(=O)OC1C(C)CCC(O)CC(=O)c1ccc(N)cc1)CC(O)C2C(=O)O (centres unmarked) [Antibiotic 67-121B]
Out: 9
